Would you kindly list R17 Log Kill for each of these compounds?
# Tested on: R17 bacteriophage
# assay: R17 bacteriophage inactivation assay, varying compound concentration
# Type: cell-based
# run conditions: 32 μM; starting titer approx. 7.1 logs; 1 minute irradiation = 1.2 J/cm^2 (Table 8)
Supply the numeric figure in log, leaving out any unit text.

Prompt: Query R17 Log Kill on R17 bacteriophage for Cc1oc2c(C)c3oc(=O)cc(C)c3cc2c1COCCCN [Compound 4]
Completion: 4.3

Prompt: Now consider Cc1oc2c(C)c3oc(=O)cc(C)c3cc2c1CN [AMT, 4′-Aminomethyl-4,5′,8-trimethylpsoralen, reference compound] .
Completion: 4.8

====

# Test system: Salmonella tester strain TA1538
# run conditions: TA1538 − S9; 10 μg/plate
assay metric: revertant colonies per plate
Give the figure only, with no unit attached.

Prompt: Looking for the measured revertant colonies per plate of Cc1oc2c(C)c3oc(=O)cc(C)c3cc2c1COCCCN [Compound 4] , can you help?
Completion: −2

Prompt: Now consider Cc1oc2c(C)c3oc(=O)cc(C)c3cc2c1CNCCN [Compound 1] .
Completion: 12

Prompt: Now consider Cc1oc2c(C)c3oc(=O)cc(C)c3cc2c1CCN [Compound 3] .
Completion: −6

Prompt: Now consider Cc1oc2c(C)c3oc(=O)cc(C)c3cc2c1COCCN [Compound 2] .
Completion: −13

Taken from patent US6544727B1.
